Where do these numbers come from? They come from PubChem BioAssay (NCI).

Test system: MDA-MB-435
assay-text: NCI tumour cell line growth inhibition, 48 h
metric: TGI

Check out these entries, answers already filled in.
[
  {
    "compound": "CC(=O)OCc1ccc2oc(=O)c(C(=O)Oc3ccccc3)cc2c1",
    "value-measured": "> 100 µM"
  },
  {
    "compound": "O=c1c(-c2ccccc2)coc2cc(OC/C(=N/O)c3ccccc3)ccc12",
    "value-measured": "> 100 µM"
  },
  {
    "compound": "COC(=O)C1(C)C=CC(=O)C2(C)C1C(O)C1OC3CC(c4ccoc4)C(C)=C3C1(C)C2CC(=O)O (centres undefined)",
    "value-measured": "> 100 µM"
  }
]

Then this compound:
Recorded TGI for CC(=O)OCc1cc2ccccc2nc1C(Br)(Br)Br with MDA-MB-435, please?
27 µM
